Just for reference, the supplement of paper PMC10127200 is where these values come from.

Overview of recorded Euclidean distance for various compounds
- System: DU145
- Measurement Protocol: Euclidean distance of Cell Painting phenotypic profile (signed KS, 77 features) to DMSO centroid (dimensionless distance); 5 or 10 uM (library dependent); higher = stronger phenotypic change vs DMSO (phenoactivity)
- Experimental Conditions: 48 h
Counter-ions that a name gives are not always drawn.
Recorded Metric: Euclidean distance

>>> meas_value("C[C@H]1O[C@@H](n2cc(F)c(=O)[nH]c2=O)[C@H](O)[C@@H]1O")
0.886
>>> meas_value("O=C(c1ccc(NS(=O)(=O)c2cccc3cccnc23)cc1)N1CCN(CC2CC2)CC1")
1.1
>>> meas_value("C[C@@H]1COCCN1c1cc(C2([S@](C)(=N)=O)CC2)nc(-c2cc[nH]c3nccc2-3)n1")
2.21
>>> meas_value("CC(=O)OCC(COC(C)=O)OC(C)=O")
1.03
>>> meas_value("C1=N/C2=N/c3ccc(OCCN4CCCC4)c(c3)COC/C=C/COCc3cccc(c3)C(=C1)N2 [Pacritinib (SB1518)]")
2.51
>>> meas_value("CN(C)CCn1nnnc1SCC1=C(C(=O)O)N2C(=O)[C@@H](NC(=O)Cc3csc(N)n3)[C@H]2SC1 [Cefotiam hydrochloride]")
0.774
>>> meas_value("O=C1Nc2ccc(CN3C(=O)CSC3=O)cc2/C1=C/c1cc(CN2CCOCC2)c[nH]1")
0.896
>>> meas_value("Cc1nccn1CCC(C(N)=O)(c1ccccc1)c1ccccc1")
1.34

###

- Test system: DU145
- Measurement Protocol: Euclidean distance of Cell Painting phenotypic profile (signed KS, 77 features) to DMSO centroid (dimensionless distance); 5 or 10 uM (library dependent); higher = stronger phenotypic change vs DMSO (phenoactivity)
- Experimental Conditions: 48 h
Counter-ions that a name gives are not always drawn.
Entry flag: MET if Euclidean distance reaches 1; NOT MET if it does not.

>>> category_label("N=C(N)N/N=C/c1c(Cl)cccc1Cl [Guanabenz Acetate]")
"MET"
>>> category_label("CC(=O)O[C@]1(C(C)=O)CC[C@H]2[C@@H]3C=C(Cl)C4=CC(=O)CC[C@]4(C)[C@H]3CC[C@@]21C [Chlormadinone acetate]")
"MET"
>>> category_label("CCCCN(CCCC)CC(O)c1cc(Cl)cc2c1-c1ccc(Cl)cc1/C2=C/c1ccc(Cl)cc1 (stereo not drawn)")
"NOT MET"
>>> category_label("CC1(C)NC(=O)N(c2ccc([N+](=O)[O-])c(C(F)(F)F)c2)C1=O [Nilutamide]")
"MET"
>>> category_label("CCn1c(=O)c(-c2cc(NC(=O)Nc3ccccc3)c(F)cc2Br)cc2cnc(NC)cc21")
"MET"
>>> category_label("COC(=O)C1=C(C)NC(C)=C(C(=O)OCC(C)C)C1c1ccccc1[N+](=O)[O-] (stereo not drawn)")
"MET"
>>> category_label("CCCCNc1ccc(C(=O)OCCN(C)C)cc1 [Tetracaine HCl]")
"NOT MET"
>>> category_label("C=CCOc1ccccc1OCC(O)CNC(C)C (stereo not drawn) [Oxprenolol HCl]")
"MET"

###

- Tested on: A549
- Measurement Protocol: Euclidean distance of Cell Painting phenotypic profile (signed KS, 77 features) to DMSO centroid (dimensionless distance); 5 or 10 uM (library dependent); higher = stronger phenotypic change vs DMSO (phenoactivity)
- Experimental Conditions: 48 h
Counter-ions that a name gives are not always drawn.
Recorded Metric: Euclidean distance

>>> meas_value("CCOC(=O)O[C@]1(C(=O)OCCl)CC[C@H]2[C@@H]3CCC4=CC(=O)C=C[C@]4(C)[C@H]3[C@@H](O)C[C@@]21C [Loteprednol etabonate]")
2.23
>>> meas_value("CC[C@]1(O)C[C@H]2CN(CCc3c([nH]c4ccccc34)[C@@](C(=O)OC)(c3cc4c(cc3OC)N(C=O)[C@H]3[C@@](O)(C(=O)OC)[C@H](OC(C)=O)[C@]5(CC)C=CCN6CC[C@]43[C@@H]65)C2)C1 [Vincristine]")
2.61
>>> meas_value("O=c1c(-c2ccc(O)cc2)coc2cc(O[C@@H]3O[C@H](CO)[C@@H](O)[C@H](O)[C@H]3O)ccc12 [Daidzin]")
0.784
>>> meas_value("CN1CCN2c3ccccc3Cc3ccccc3C2C1 (configuration not stated) [Mianserin HCl]")
2.41
>>> meas_value("CC(C)C[C@H](NC(=O)[C@@H](O)[C@H](N)Cc1ccccc1)C(=O)O [Bestatin]")
0.773
>>> meas_value("O=C(O)Cc1ccccc1Nc1c(Cl)cccc1Cl [Diclofenac Potassium]")
0.427
>>> meas_value("Nc1ccc(C(=O)O)c(O)c1 [4-Aminosalicylic acid]")
0.798

###

// Euclidean distance lookup, one value per entry
- Tested on: FB
- Measurement Protocol: Euclidean distance of Cell Painting phenotypic profile (signed KS, 77 features) to DMSO centroid (dimensionless distance); 5 or 10 uM (library dependent); higher = stronger phenotypic change vs DMSO (phenoactivity)
- Experimental Conditions: 48 h
Recorded Metric: Euclidean distance

>>> meas_value("CCOC(=O)C1=C[C@@H](OC(CC)CC)[C@H](NC(C)=O)[C@@H](N)C1 [Oseltamivir Phosphate]")
0.91
>>> meas_value("CCCCc1nc(Cl)c(CO)n1Cc1ccc(-c2ccccc2-c2nnn[nH]2)cc1")
0.722
>>> meas_value("COc1ccc(C[C@@H]2c3cc(OC)c(OC)cc3CC[N@+]2(C)CCC(=O)OCCCCCOC(=O)CC[N@@+]2(C)CCc3cc(OC)c(OC)cc3[C@H]2Cc2ccc(OC)c(OC)c2)cc1OC [Cisatracurium Besylate]")
1.11
>>> meas_value("CC1=C(CC(=O)O)c2cc(F)ccc2/C1=C\\c1ccc([S+](C)[O-])cc1 (configuration not stated)")
0.812
>>> meas_value("CS(=O)(=O)N1CCc2c(-c3cnc(N)nc3)nc(N3CCOCC3)nc21")
2.13
>>> meas_value("NC(N)=Nc1nc(CSCC/C(N)=N/S(N)(=O)=O)cs1")
1.11
>>> meas_value("C=CC(=O)N1CCC[C@@H](n2nc(-c3ccc(Oc4ccccc4)cc3)c3c(N)ncnc32)C1")
2.35

###

- System: FB
- Measurement Protocol: Euclidean distance of Cell Painting phenotypic profile (signed KS, 77 features) to DMSO centroid (dimensionless distance); 5 or 10 uM (library dependent); higher = stronger phenotypic change vs DMSO (phenoactivity)
- Experimental Conditions: 48 h
Structures can show the parent of a compound that is named as a salt.
Parameter threshold = 1. Response is MET when Euclidean distance meets or exceeds it, else NOT MET.

>>> category_label("NC(=O)c1noc([C@H](CCCC2CCCCC2)CC(=O)NO)n1")
"MET"
>>> category_label("CN(C)CCOC(c1ccccc1)c1ccccc1.Cn1c(=O)c2[nH]c(Cl)nc2n(C)c1=O [Dimenhydrinate]")
"MET"
>>> category_label("Oc1c(I)cc(Cl)c2cccnc12 [Clioquinol]")
"MET"
>>> category_label("CCCCNc1ccc(C(=O)OCCN(C)C)cc1 [Tetracaine HCl]")
"MET"
>>> category_label("O=C(O)c1ccccc1OP(=O)(O)O [Fosfosal]")
"NOT MET"
>>> category_label("O=C(O)C(Cc1c[nH]c2ccccc12)N1C(=O)c2ccccc2C1=O (centres undefined)")
"NOT MET"
>>> category_label("CCCS(=O)(=O)Nc1ccc(F)c(C(=O)c2c[nH]c3ncc(Cl)cc23)c1F")
"MET"
>>> category_label("CN(C)c1ccc(O)c2c1C[C@H]1C[C@H]3[C@H](N(C)C)C(O)=C(C(N)=O)C(=O)[C@@]3(O)C(O)=C1C2=O [Minocycline HCl]")
"MET"
>>> category_label("COc1c(N2CCNC(C)C2)c(F)cc2c(=O)c(C(=O)O)cn(C3CC3)c12 (centres undefined) [Gatifloxacin]")
"NOT MET"

###

Quick reference: Euclidean distance of the listed items.
- Test system: HEPG2
- Measurement Protocol: Euclidean distance of Cell Painting phenotypic profile (signed KS, 77 features) to DMSO centroid (dimensionless distance); 5 or 10 uM (library dependent); higher = stronger phenotypic change vs DMSO (phenoactivity)
- Experimental Conditions: 48 h
Where a name gives a salt, the structure may show the parent alone.
Recorded Metric: Euclidean distance

>>> meas_value("Cc1nc2n(c(=O)c1CCN1CCC(c3noc4cc(F)ccc34)CC1)CCCC2 [Risperidone]")
0.51
>>> meas_value("CNC(=O)c1nn(C)c2c1C(C)(C)Cc1cnc(Nc3ccc(N4CCN(C)CC4)cc3)nc1-2")
2.65
>>> meas_value("CC[C@@H](CO)NCCN[C@@H](CC)CO [Ethambutol 2HCl]")
0.465
>>> meas_value("Cc1[nH]c(/C=C2\\C(=O)Nc3ccccc32)c(C)c1CCC(=O)O [TSU-68 (SU6668. Orantinib)]")
0.787
>>> meas_value("Cc1[nH]c(/C=C2\\C(=O)Nc3ccc(S(=O)(=O)Cc4c(Cl)cccc4Cl)cc32)c(C)c1C(=O)N1CCC[C@@H]1CN1CCCC1")
1.59
>>> meas_value("CCN(CCO)CCCC(C)Nc1ccnc2cc(Cl)ccc12 (configuration not stated) [Hydroxychloroquine Sulfate]")
2.92
>>> meas_value("O=C1[C@@H]2[C@H]3CC[C@H](C3)[C@@H]2C(=O)N1C[C@@H]1CCCC[C@H]1CN1CCN(c2nsc3ccccc23)CC1 [lurasidone]")
0.479
>>> meas_value("CC(C)OC(=O)CCC/C=C\\C[C@@H]1[C@@H](/C=C/C(F)(F)COc2ccccc2)[C@H](O)C[C@@H]1O [Tafluprost]")
0.711
>>> meas_value("O[C@@H](COc1cccc2ncccc12)CN1CCN(C2c3ccccc3[C@@H]3[C@H](c4ccccc42)C3(F)F)CC1 (some centres not stated)")
0.675
>>> meas_value("CCS(=O)(=O)c1cccc(-c2cc(C(=O)NC3CCN(C)CC3)c(C)c3[nH]c4ncc(C)cc4c23)c1")
2.3
>>> meas_value("O=C1Nc2ccccc2/C1=C1/Nc2ccccc2C1=O [Indirubin]")
1.58
>>> meas_value("Cc1ccc(/C(=C\\CN2CCCC2)c2cccc(/C=C/C(=O)O)n2)cc1 [Acrivastine]")
0.729
>>> meas_value("NC1CCN(c2nc3c(cc2F)c(=O)c(C(=O)O)cn3-c2ccc(F)cc2F)C1 (configuration not stated) [Tosufloxacin p-Toluenesulfonate Hydrate]")
0.47
>>> meas_value("CCn1c(=O)c(-c2cc(NC(=O)Nc3ccccc3)c(F)cc2Br)cc2cnc(NC)cc21")
1.61
>>> meas_value("c1ccc2c(CC3=NCCN3)cccc2c1 [Naphazoline HCl]")
0.599
>>> meas_value("CN(C)[C@@H]1C(O)=C(C(N)=O)C(=O)[C@@]2(O)C(O)=C3C(=O)c4c(O)ccc(Cl)c4[C@@](C)(O)[C@H]3C[C@@H]12 [Chlortetracycline HCl]")
0.464
>>> meas_value("CC1CNc2c(cccc2S(=O)(=O)N[C@@H](CCCNC(=N)N)C(=O)N2CC[C@@H](C)C[C@@H]2C(=O)O)C1 (some centres not stated) [Argatroban]")
0.99
>>> meas_value("Cc1cccc(CN2CCN(C(c3ccccc3)c3ccc(Cl)cc3)CC2)c1 (configuration not stated) [Meclizine 2HCl]")
0.511
>>> meas_value("NC(=O)c1cccc(-c2cccc(OC(=O)NC3CCCCC3)c2)c1")
1.61
>>> meas_value("NCCc1c[nH]cn1 [Histamine Phosphate]")
1.23
>>> meas_value("Cc1nn(-c2ccccc2)c(C)c1C=NN1CCN(Cc2ccccc2)CC1")
1.16
>>> meas_value("CCC(=O)N1CCN(c2ccc(-n3c(=O)ccc4cnc5ccc(-c6cnc7ccccc7c6)cc5c43)cc2C(F)(F)F)CC1 [Torin 1]")
2.78
>>> meas_value("COc1ccc(C[C@H](N)C(=O)N[C@H]2[C@@H](O)[C@H](n3cnc4c(N(C)C)ncnc43)O[C@@H]2CO)cc1 [Puromycin 2HCl]")
4.76
>>> meas_value("CCCCCC(=O)O[C@]1(C(C)=O)CC[C@H]2[C@@H]3CCC4=CC(=O)CC[C@]4(C)[C@H]3CC[C@@]21C [Hydroxyprogesterone caproate]")
0.603
>>> meas_value("CCc1ccc(N(CC(C)C)S(=O)(=O)c2ccc(OCC3CCOCC3)c(CO)c2)cc1")
0.857
>>> meas_value("O=C(Nc1ccccc1)c1ccccc1O [Salicylanilide]")
0.798
>>> meas_value("COc1cc(C(=O)NC2CCCNC2)cc(OC)c1OC (configuration not stated) [Troxipide]")
1.83
>>> meas_value("O=C(Nc1cc(Cl)cc(Cl)c1O)c1c(O)c(Cl)cc(Cl)c1Cl [Oxyclozanide]")
0.649
>>> meas_value("O=C(O)/C=C/c1ccc(Cn2ccnc2)cc1 [Ozagrel HCl]")
1.97
>>> meas_value("O=C(C1CCCCC1)N1CC(=O)N2CCc3ccccc3C2C1 (configuration not stated) [Praziquantel]")
0.33
>>> meas_value("O=C(O)CCCc1cc2cc(Cl)ccc2n1S(=O)(=O)c1ccc2ncsc2c1 [Lanifibranor(IVA-337)]")
0.544
>>> meas_value("CO[C@H]1C(=O)[C@]2(C)[C@@H](OC)C[C@H]3OC[C@@]3(OC(C)=O)[C@H]2[C@H](OC(=O)c2ccccc2)[C@]2(O)C[C@H](OC(=O)[C@H](O)[C@@H](NC(=O)OC(C)(C)C)c3ccccc3)C(C)=C1C2(C)C [Cabazitaxel]")
1.97
